# TARGET_OR_TEST_SYSTEM: Human DNA Pol β (Homo sapiens)
# EXPERIMENT_NOTES: Enzyme assay with human DNA polymerase β
# Type: biochemical
# MEASUREMENT_CONDITIONS: read-out: IC50 Human DNA Pol β; activated calf thymus DNA, [3H]dTTP
// IC50 lookup, one value per entry

- MOLECULE: "Cc1cn(C[C@H]2CCCC[C@H]2COC(C(=O)O)P(=O)(O)O)c(=O)[nH]c1=O (relative stereo) [Compound 6e]"
  IC50: "> 500 µM"
- MOLECULE: "Cc1cn(C[C@H]2CCC[C@H]2COC(C(=O)O)P(=O)(O)O)c(=O)[nH]c1=O (relative stereo) [Compound 6a]"
  IC50: "> 500 µM"

Continue with the next molecule.
*Q* Reported IC50 for Cc1cn(C[C@H]2CC=CC[C@H]2COC(C(=O)O)P(=O)(O)O)c(=O)[nH]c1=O (relative stereo) [Compound 6c] : what is it?
*A* > 500 µM

Source: paper PMC4893804
